- Test details: statin-free myotube ATP level counter-assay – cell-based, no simvastatin, luminescence, dry powder, counter-screen for statin myotoxicity suppressor project, dose response (AID 743334)
- Protocol conditions: C2C12 myotubes ATP, CellTiter-Glo luminescence, 48 h; stronger effect = higher value
Endpoint: max activity (%)

> print(dat)
                            smiles.notation  numeric.result
1  C[C@H](CO)N1C[C@H](C)[C@H](CN(C)Cc2ccc(C(=O)Nc3ccccc3N)cc2)Oc2ccc(NC(=O)Nc3cccc4ccccc34)cc2CC1=O           -21.1
2  CN(C)C(=O)c1cccc(-c2ccc([C@@H]3[C@@H](C#N)N(C(=O)C4CCCC4)[C@@H]3CO)cc2)c1           -5.88
3  C[C@@H]1CN([C@@H](C)CO)C(=O)c2cc(NC(=O)Cc3cn(C)c4ccccc34)ccc2O[C@H]1CN(C)Cc1ccc(C(=O)Nc2ccccc2N)cc1          -0.192
4  C[C@@H]1CN([C@H](C)CO)C(=O)c2cc(NC(=O)Cc3cn(C)c4ccccc34)ccc2O[C@H]1CN(C)Cc1ccc(C(=O)Nc2ccccc2N)cc1            9.28

* * *

Measured max activity by item
- Test details: statin-free myotube ATP level counter-assay – cell-based, no simvastatin, luminescence, dry powder, counter-screen for statin myotoxicity suppressor project, dose response (AID 743334)
- Protocol conditions: C2C12 myotubes ATP, CellTiter-Glo luminescence, 48 h; stronger effect = higher value
Endpoint: max activity (%)

> print(dat)
                            smiles.notation      endpoint  numeric.result
1  CN1C(=O)c2cc(NC(=O)c3ccc(F)c(F)c3)ccc2OC[C@H]2O[C@@H](CC(=O)Nc3ccc4c(c3)COC4)CC[C@@H]21  max activity            12.6
2  CCCC#Cc1ccc([C@H]2[C@@H](C#N)N(S(=O)(=O)c3cccc(F)c3)[C@H]2CO)cc1  max activity             3.4
3  O=C(C[C@H]1CC[C@@H]2[C@H](COC[C@@H](O)CN2Cc2ccc(Oc3ccccc3)cc2)O1)N1CCCCC1  max activity              14
4  CCCNC(=O)N1[C@@H](C#N)[C@@H](c2ccc(-c3ccccc3F)cc2)[C@@H]1CO  max activity            6.49

* * *

Readings of max activity for the listed compounds
- Test details: statin-free myotube ATP level counter-assay – cell-based, no simvastatin, luminescence, dry powder, counter-screen for statin myotoxicity suppressor project, dose response (AID 743334)
- Protocol conditions: C2C12 myotubes ATP, CellTiter-Glo luminescence, 48 h; stronger effect = higher value
Endpoint: max activity (%)

> print(dat)
                            smiles.notation  quantity.unit  numeric.result
1  COCC(=O)N1[C@H](C#N)[C@@H](c2ccc(-c3cccc(F)c3)cc2)[C@@H]1CO              %            6.18
2  C[C@@H]1CN([C@H](C)CO)C(=O)Cc2cc(NC(=O)CCCCCC(=O)Nc3ccccc3N)ccc2O[C@H]1CN(C)Cc1ccc(Oc2ccccc2)cc1              %          -0.786
3  N#C[C@@H]1[C@@H](c2ccccc2)[C@H](CO)N1S(=O)(=O)c1ccc(-c2ccccc2)cc1              %           -5.62
4  C[C@@H]1CN([C@@H](C)CO)C(=O)Cc2cc(NC(=O)CCCCCC(=O)Nc3ccccc3N)ccc2O[C@@H]1CN(C)Cc1ccc(Oc2ccccc2)cc1              %           -25.1
